PROCEDURE_DETAILS: qHTS profiling of the MIPE4 collection as inhibitors of Plasmodium falciparum (DD2) proliferation (Rep 2) (AID 743346)
SETTINGS: P. falciparum Dd2 in erythrocytes, SYBR Green DNA, 72 h; at 28.5 µM unless noted
Reported values of parasite growth, % of control (lower = inhibition) for individual entries
EXPERIMENTAL_READOUT: parasite growth, % of control (lower = inhibition) (%)

MOL_SMILES: Nc1nc(NCCNc2ncc(-n3ccnc3)c(-c3ccc(Cl)cc3Cl)n2)ccc1[N+](=O)[O-]
RECORDED_RESULT: 44.4

MOL_SMILES: C[C@]1(CO)CN(c2cc(C(=O)Nc3ccc4c(c3)-c3c(c(C(N)=O)nn3-c3ccc(F)cc3)CC4)c(Cl)cn2)C[C@@]1(C)CO
RECORDED_RESULT: 38.3

MOL_SMILES: COc1ccc2c(OCc3nnc4ccc(-c5ccccc5)nn34)ccnc2c1
RECORDED_RESULT: 67

MOL_SMILES: CC=C1NC(=O)[C@H]2CSSCCC=C[C@H](CC(=O)N[C@H](C(C)C)C(=O)N2)OC(=O)[C@H](C(C)C)NC1=O
RECORDED_RESULT: 12.2

MOL_SMILES: CN(C)CCCN=c1c2ccccc2n(C)c2[nH]c(=O)n(C)c(=O)c12
RECORDED_RESULT: 9.14

MOL_SMILES: COC(=O)[C@]12CCC(C)(C)C[C@@H]1[C@@H]1C(=O)C=C3[C@@]4(C)C=C(C#N)C(=O)C(C)(C)[C@@H]4CC[C@@]3(C)[C@]1(C)CC2
RECORDED_RESULT: 25.5

MOL_SMILES: CC1(C)OC2=C(C(=O)c3ccccc3C2=O)[C@H](NCc2ccccc2)[C@H]1O
RECORDED_RESULT: 6.48

MOL_SMILES: NCC(=O)Nc1ccc(-n2nc(C(F)(F)F)cc2-c2ccc3c(ccc4ccccc43)c2)cc1
RECORDED_RESULT: 12.2
